Source: patent US9834542B2

study-system: LXRβ (Homo sapiens)
Construct: Co-transfection expression plasmids, comprising full-length LXRα (pCMX-h LXRα[…] or LXRβ (pCMX-hLXRβ)); expressed in transfected cells; host or cells: CV-1 African Green Monkey Kidney Cells
assay-explanation: Co-transfection assay (LXRE luciferase reporter), LXRβ
Assay type: cell-based
condition-summary: LXRβ co-transfection; relative to high control 1-(2,4-difluorobenzyl)-2-oxo-6-(4-phenoxyphenyl)-4-(trifluoromethyl)-1,2-dihydropyridine-3-carbonitrile; read-out: % Efficacy
measurement-type: Emax (%)

                        structure_as_smiles  measurement_type  data_value
0  CS(=O)(=O)c1cccc(-c2ccc(-n3cnc(C(F)(F)F)c3)c(-n3nncc3-c3ccc(Cl)cc3Cl)c2)c1              Emax          80
1  Cc1nc(C(F)(F)F)cn1-c1ccc(-c2cccc(S(C)(=O)=O)c2)cc1-n1nncc1-c1ccc(F)cn1              Emax          63
2  COCCc1nc(-c2cc(-c3cccc(S(C)(=O)=O)c3)ccc2-n2cc(C(F)(F)F)nc2C)c(-c2ccc(OC(F)(F)F)cc2)o1              Emax          57

====

study-system: LXRβ (Homo sapiens, UniProt P55055)
Construct: Co-transfection expression plasmids, comprising full-length LXRα (pCMX-h LXRα[…] or LXRβ (pCMX-hLXRβ)); expressed in transfected cells; host or cells: CV-1 African Green Monkey Kidney Cells
Sequence (P55055 whole entry): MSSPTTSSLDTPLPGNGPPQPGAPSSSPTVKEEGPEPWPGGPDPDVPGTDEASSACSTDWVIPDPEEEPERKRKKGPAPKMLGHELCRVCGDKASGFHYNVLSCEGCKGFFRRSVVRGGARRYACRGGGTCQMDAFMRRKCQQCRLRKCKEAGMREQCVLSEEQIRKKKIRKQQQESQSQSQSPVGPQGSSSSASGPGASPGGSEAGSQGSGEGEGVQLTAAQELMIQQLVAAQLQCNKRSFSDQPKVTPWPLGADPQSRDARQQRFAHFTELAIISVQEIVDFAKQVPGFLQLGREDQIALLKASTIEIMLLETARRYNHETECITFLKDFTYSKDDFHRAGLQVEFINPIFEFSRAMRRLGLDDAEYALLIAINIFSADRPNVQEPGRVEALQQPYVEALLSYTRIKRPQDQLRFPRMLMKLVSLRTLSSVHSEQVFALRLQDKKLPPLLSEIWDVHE
Sequence (P19793 whole entry partner): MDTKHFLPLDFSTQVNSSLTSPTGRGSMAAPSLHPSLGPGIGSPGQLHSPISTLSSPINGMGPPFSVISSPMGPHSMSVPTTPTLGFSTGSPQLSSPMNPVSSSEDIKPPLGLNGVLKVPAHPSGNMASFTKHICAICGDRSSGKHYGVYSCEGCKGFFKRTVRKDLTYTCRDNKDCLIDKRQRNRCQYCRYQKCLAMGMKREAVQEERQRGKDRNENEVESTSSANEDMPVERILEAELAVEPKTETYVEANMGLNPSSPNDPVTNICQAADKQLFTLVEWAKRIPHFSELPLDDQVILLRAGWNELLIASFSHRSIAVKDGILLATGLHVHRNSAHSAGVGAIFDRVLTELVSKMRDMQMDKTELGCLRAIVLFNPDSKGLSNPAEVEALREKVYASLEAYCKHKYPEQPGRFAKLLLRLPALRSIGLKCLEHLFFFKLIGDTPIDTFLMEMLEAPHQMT
assay-explanation: Co-transfection assay (LXRE luciferase reporter), LXRβ
Assay type: cell-based
condition-summary: LXRβ co-transfection; relative to high control 1-(2,4-difluorobenzyl)-2-oxo-6-(4-phenoxyphenyl)-4-(trifluoromethyl)-1,2-dihydropyridine-3-carbonitrile; read-out: % Efficacy
measurement-type: Emax (%)

Sample records with Emax:
>>> df
                                   compound  unit  data_value
0  Cc1nc(C(F)(F)F)cn1-c1ccc(-c2cccc(S(C)(=O)=O)c2)cc1-n1nncc1-c1ccc(C#N)cc1 [Example 47]     %          64
1  Cc1cc(OC(F)(F)F)ccc1-c1cnnn1-c1cc(-c2cccc(S(C)(=O)=O)c2)ccc1-n1cc(C(F)(F)F)nc1C [Example 57]     %          82

A = Cc1nc(C(F)(F)F)c(Cl)n1-c1ccc(-c2cc(Cl)c(CO)c(S(C)(=O)=O)c2)cc1-n1nncc1-c1ccc(OC(F)(F)F)cc1 [Example 60]
B = Cc1nc(-c2cc(-c3cccc(S(C)(=O)=O)c3)ccc2-n2cc(C(F)(F)F)nc2C)c(-c2ccc(Cl)c(F)c2)o1 [Example 498]
Data request: I'm curious, which of these has a smaller Emax number: A or B ? Indicate your choice by writing its label.
Data returned: B

====

study-system: LXRβ (Homo sapiens, UniProt P55055)
Construct: Co-transfection expression plasmids, comprising full-length LXRα (pCMX-h LXRα[…] or LXRβ (pCMX-hLXRβ))
assay-explanation: Co-transfection assay (LXRE luciferase reporter), LXRβ
condition-summary: CV-1 cells transfected with pCMX-hLXRβ and LXREx1-Tk-Luciferase; 20 hours incubation
measurement-type: EC50 (nM)

A = Cc1nc(-c2cc(-c3ccc(C)c(S(C)(=O)=O)c3)ccc2-n2cc(C(F)(F)F)nc2C)c(-c2ccc(OC(F)F)c(F)c2)o1
B = Cc1nc(C(F)(F)F)cn1-c1ccc(-c2cccc(S(C)(=O)=O)c2)cc1-n1nncc1-c1ccc(OC(F)(F)F)cc1Cl
Data request: Identify the item whose EC50 is the smaller number: A or B Write the label of whichever entry you select.
Data returned: A

A = Cc1nc(C(F)(F)F)cn1-c1c(Cl)cc(-c2cccc(S(C)(=O)=O)c2)cc1-n1nncc1-c1ccc(OC(F)(F)F)cc1
B = Cc1nc(C(F)(F)F)cn1-c1ccc(-c2cccc(S(C)(=O)=O)c2)cc1-c1nc(CN(C)C)oc1-c1ccc(OC(F)(F)F)cc1
C = Cc1nc(C(F)(F)F)cn1-c1ccc(-c2cccc(S(C)(=O)=O)c2)cc1-n1nncc1C(F)(F)c1ccc(Cl)cc1
D = Cc1nc(-c2ccc(Cl)cc2Cl)c(-c2cc(-c3cccc(S(C)(=O)=O)c3)ccc2-n2cc(C(F)(F)F)nc2C)o1
E = COc1ncc(F)cc1-c1oc(C)nc1-c1cc(-c2cccc(S(C)(=O)=O)c2)ccc1-n1cc(C(F)(F)F)nc1C
Data request: Rank items: key EC50, increasing. Use the labels to give the ranking in the order requested.
Data returned: D, C, B, A, E
(D: 90 nM, C: 133 nM, B: 205 nM, A: 574 nM, E: 1160 nM)

A = Cc1nc(C(F)(F)F)cn1-c1ccc(-c2cc(F)c(CCO)c(S(C)(=O)=O)c2)cc1-n1nncc1-c1ccc(OC(F)(F)F)cc1
B = Cc1nc(C(F)(F)F)cn1-c1ccc(-c2cccc(S(C)(=O)=O)c2)cc1-c1ocnc1Cc1ccc(OC(F)(F)F)cc1
Data request: Between item A and item B , which reported EC50 is smaller? I would appreciate it if you answered with the label of your choice.
Data returned: A
(A: 192 nM, B: 702 nM)

1 = Cc1cc(-c2oc(C)nc2-c2cc(-c3cccc(S(C)(=O)=O)c3)ccc2-n2cc(C(F)(F)F)nc2C)cc(Cl)n1
2 = Cc1nc(-c2cc(-c3cccc(S(C)(=O)=O)c3)ccc2-n2cc(C(F)(F)F)nc2C)c(-c2cc(F)cc(F)c2)o1
Data request: Lab note: check whether 1 or 2 shows the higher recorded EC50. Answer format: the label of the selected item.
Data returned: 2
